TEST TARGET: synthetic Aβ protofibrils (Aβ1-42-derived protofibrils) (UniProt P05067 672-713)
Sequence (P05067 672-713): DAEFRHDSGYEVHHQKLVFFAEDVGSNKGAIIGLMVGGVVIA
EXPERIMENTAL PROTOCOL: Octet BLI (Protein G sensor); PF 0.9167 nM
pKd: −log10 of the molar value.
QUANTITY KIND: pKd

Consider the binder shown here: B51 (hybridoma-purified mAb) (antibody, V domains shown) VH: QVQLVESGGGVVQPGRSLRLSCAASGFTFSSHGMHWVRQAPGKGLEWVAVIWYDGSNKNYADSVKGRFTISRDNSKNTLYLQMNSLRAEDTAVYYCARRGRVGVTRNYYYYGMDVWGQGTTVTVSS VL: AIQMTQSPSSLSASVGDRVTITCRASQGIRNDLGWFQQKPVKAPKLLIYPASSLQSGVPSRFSGSGSGTDFTLTISSLQPEDFATYYCLQDYNYPWTFGQGTKVEIK What is its recorded pKd?
> 12.00

Values from patent US20230107034A1
